Please provide measured EC50 group, cGMP in GTM-3 cells for the entries that follow.
- MEASURED TARGET: T1, natriuretic peptide receptor-B (human)
- T1 chain: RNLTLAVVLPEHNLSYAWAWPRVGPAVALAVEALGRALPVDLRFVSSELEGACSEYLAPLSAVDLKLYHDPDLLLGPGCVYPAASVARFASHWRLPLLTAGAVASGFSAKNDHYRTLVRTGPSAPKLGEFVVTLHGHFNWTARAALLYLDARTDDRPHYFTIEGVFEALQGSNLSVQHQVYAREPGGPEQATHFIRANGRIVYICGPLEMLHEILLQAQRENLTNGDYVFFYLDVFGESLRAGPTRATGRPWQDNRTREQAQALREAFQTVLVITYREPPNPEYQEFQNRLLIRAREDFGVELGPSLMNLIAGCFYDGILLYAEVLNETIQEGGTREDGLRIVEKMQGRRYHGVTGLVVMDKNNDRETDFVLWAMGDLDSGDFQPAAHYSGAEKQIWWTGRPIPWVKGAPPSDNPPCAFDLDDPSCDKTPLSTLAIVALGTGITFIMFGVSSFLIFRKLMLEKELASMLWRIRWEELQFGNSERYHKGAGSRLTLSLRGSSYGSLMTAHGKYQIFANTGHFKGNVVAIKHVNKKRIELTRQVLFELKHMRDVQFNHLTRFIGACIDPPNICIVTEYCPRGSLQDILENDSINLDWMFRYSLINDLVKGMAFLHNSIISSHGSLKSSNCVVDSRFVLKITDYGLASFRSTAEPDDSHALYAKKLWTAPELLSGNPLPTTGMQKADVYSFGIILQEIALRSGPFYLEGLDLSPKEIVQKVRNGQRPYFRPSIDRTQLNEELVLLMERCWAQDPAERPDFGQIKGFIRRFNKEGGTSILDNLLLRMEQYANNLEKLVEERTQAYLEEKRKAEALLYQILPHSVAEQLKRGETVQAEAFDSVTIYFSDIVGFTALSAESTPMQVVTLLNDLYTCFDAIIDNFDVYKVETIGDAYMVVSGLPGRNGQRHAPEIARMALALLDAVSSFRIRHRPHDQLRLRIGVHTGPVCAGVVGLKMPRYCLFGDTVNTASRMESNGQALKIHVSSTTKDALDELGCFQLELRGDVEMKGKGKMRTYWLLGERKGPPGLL
- PROCEDURE DETAILS: cell-based or functional assay
Numbered stars: 1 amine (or outer) side, 2 acyl side, 3 side chain; on linkers, the order of the positions; unused ones are H or OH. Square brackets hold non-standard residues; d marks the D form. Ends that are not written are not given here. * marks the point of attachment. Pro(trans-4-NH2) = O=C([C@@H]1C[C@@H](N[*:3])CN1[*:1])[*:2]; Sni = (S)-nipecotic acid, O=C([C@H]1CCCN([*:1])C1)[*:2]; Phe(3-Me) = Cc1cccc(C[C@H](N)C(=O)O)c1; Hyp = O=C(O)[C@@H]1C[C@@H](O)CN1; NMeF = CN[C@@H](Cc1ccccc1)C(=O)O; tBuAla = CC(C)(C)C[C@H](N)C(=O)O; Aoc(2) = CCCCCC[C@H](N)C(=O)O; NMeL = CN[C@@H](CC(C)C)C(=O)O; Octanoyl = CCCCCCCC(=O)*; Che = not defined here; leu = not defined here; Occ = octanoic acid

Solved entries (count: 4):
H-KP[Aoc(2)][Sni]FLL[Hyp][NMeL]DRI-NH2 (not fully specified (residue 6); printed as H-Lys-Pro-Hgl-Sni-Phe-leu-Leu-Hyp-Nml-Asp-Arg-Ile-NH2) [JAL-1900] = ≤ 1 µM
[Occ][Sni]FLL[Pro(trans-4-NH2)][NMeL]VR[Che] (not fully specified (residue 4); printed as Occ-Sni-Phe-leu-Leu-Tap-Nml-Val-Arg-Che; reading uncertain) [JAL-1729] = ≤ 1 µM
[Occ][dP][NMeF]GLPLDRI-NH2 [JAL-0966] = ≤ 15 µM
[Occ][Sni]F[leu]LX[NMeL]DRI-NH2 (not fully specified (residue 6); printed as Occ-Sni-Phe-leu-Leu-Tap(Asp(-))-Nml-Asp-Arg-Ile-NH2) [JAL-1935] = ≤ 5 µM

Provide each entry's EC50 group, cGMP in GTM-3 cells from the list below.
1. Octanoyl-AFG[tBuAla]PLDRI-NH2 (not fully specified (some residues); printed as Occ-ala-Phe-Gly-Npg-Pro-Leu-Asp-Arg-Ile-NH2) [JAL-0903]
2. [Occ]A[Phe(3-Me)]GLPLDRI-NH2 (not fully specified (residue 2); printed as Occ-ala-Mmf-Gly-Leu-Pro-Leu-Asp-Arg-Ile-NH2) [JAL-1006]

Result:
["≤ 15 µM", "≤ 15 µM"]

Provide each entry's EC50 group, cGMP in GTM-3 cells from the list below.
1. XXFGLKLDRI (HELM PEPTIDE1{[CCCCCC(=O)[*:2]].[O=C(Cn1cccc(N[*:1])c1=O)[*:2]].F.G.L.K.L.D.R.I.[am]}$$$$V2.0; SMILES CCCCCC(=O)Nc1cccn(CC(=O)N[C@@H](Cc2ccccc2)C(=O)NCC(=O)N[C@@H](CC(C)C)C(=O)N[C@@H](CCCCN)C(=O)N[C@@H](CC(C)C)C(=O)N[C@@H](CC(=O)O)C(=O)N[C@@H](CCCNC(=N)N)C(=O)N[C@H](C(N)=O)[C@@H](C)CC)c1=O) [JAL-0652]
2. Octanoyl-[dA]F[dL]L[Hyp][NMeL]IRI-NH2 [JAL-1363]

Result:
1. ≤ 15 µM
2. ≤ 5 µM
